The measured values listed here are drawn from ChEMBL document CHEMBL1201862.

STUDY SYSTEM: Luciferin 4-monooxygenase (Photinus pyralis, UniProt P08659)
Sequence (P08659 whole entry): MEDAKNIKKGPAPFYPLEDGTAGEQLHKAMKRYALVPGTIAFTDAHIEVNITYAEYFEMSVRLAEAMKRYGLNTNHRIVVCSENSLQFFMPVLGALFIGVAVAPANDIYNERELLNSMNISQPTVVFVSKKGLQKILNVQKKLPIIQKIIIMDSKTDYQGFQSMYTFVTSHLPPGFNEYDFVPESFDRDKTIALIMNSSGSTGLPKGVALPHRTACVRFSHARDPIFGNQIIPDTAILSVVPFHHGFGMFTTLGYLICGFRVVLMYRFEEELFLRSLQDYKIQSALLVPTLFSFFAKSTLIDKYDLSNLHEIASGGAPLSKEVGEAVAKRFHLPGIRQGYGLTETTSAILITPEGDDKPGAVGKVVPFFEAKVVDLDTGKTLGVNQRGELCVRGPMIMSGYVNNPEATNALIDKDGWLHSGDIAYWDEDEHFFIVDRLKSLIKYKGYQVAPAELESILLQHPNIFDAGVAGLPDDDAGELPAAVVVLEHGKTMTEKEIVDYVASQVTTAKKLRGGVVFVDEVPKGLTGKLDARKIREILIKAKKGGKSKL
EXPERIMENT: firefly luciferase enzyme inhibitors, dose response, biochemical, luminescence (AID 1891)
The source made the active and inactive calls.
RESULT TYPE: EC50

Look over these answered cases.
{"COMPOUND": "CCN(C(=O)CSc1nnc(C)n1-c1ccccc1)C1CCS(=O)(=O)C1 (stereo not given)", "EC50": "> 112 µM (not active)"}
{"COMPOUND": "Cc1ccc(SCC(=O)OC(C)C(=O)NCc2ccccc2)cc1 (stereo not given)", "EC50": "> 112 µM (not active)"}
{"COMPOUND": "O=C(NC(c1ccc(Cl)cc1)c1cc(Cl)c2cccnc2c1O)c1cccnc1 (stereo not given)", "EC50": "> 112 µM (not active)"}
{"COMPOUND": "COc1cccc(C(=O)Nc2ccc(N3CCCC3)cc2)c1", "EC50": "0.856 µM (active)"}
{"COMPOUND": "Cc1nonc1C(=O)N/N=C/c1ccc(O)cc1O", "EC50": "0.667 µM (active)"}
{"COMPOUND": "CCCCOc1ccc(-c2cc(C(=O)NN=C(S)NCC)c3ccccc3n2)cc1", "EC50": "0.516 µM (active)"}
{"COMPOUND": "CCOC(=O)CNS(=O)(=O)c1cc(-c2nnc(O)c3ccccc23)ccc1C", "EC50": "> 112 µM (not active)"}
{"COMPOUND": "O=C(NC1CCCCC1)C12CC3CC(CC(Cl)(C3)C1)C2", "EC50": "> 112 µM (not active)"}

Hi, could you look up EC50 for each item in my list?
1. CC(C)(C)OC(=O)Nc1ncnc2c1ncn2C1OC(CO)C2OC(C)(C)OC21 (stereo not given)
2. c1ccc(C2=NN(c3ccccc3)CC2)cc1

["> 112 µM (not active)", "> 112 µM (not active)"]

----------
STUDY SYSTEM: UniProt:P07900
Assay type: functional, organism-based
The source made the active and inactive calls.
RESULT TYPE: AC50

The cases that follow already have their AC50 on record.
{"COMPOUND": "O=C(NC(c1ccc(Cl)cc1)c1cc(Cl)c2cccnc2c1O)c1cccnc1 (stereo not given)", "STUDY SYSTEM": "UniProt:P07900", "AC50": "24.2 µM (active)"}
{"COMPOUND": "Oc1cc(CSc2ccc(Cl)cc2)nc(-c2ccccn2)n1", "STUDY SYSTEM": "UniProt:P07900", "AC50": "23.3 µM (active)"}
{"COMPOUND": "CCN(CC)c1ccc(C(=C2C=CC(=[N+](CC)CC)C=C2)c2ccccc2)cc1", "STUDY SYSTEM": "UniProt:P07900", "AC50": "0.754 µM (active)"}
{"COMPOUND": "COC1CCC(OC2CC(C3(C)CCC4(CC(O)C(C)C(C(C)/C=C(\\C)C(=O)C(C)CC(C)C(=O)O)O4)O3)OC3(OC(C4OC(O)(CO)C(C)CC4C)CC3C)C2C)OC1C (stereo not given)", "STUDY SYSTEM": "UniProt:P07900", "AC50": "5.72 µM (active)"}

Test system UniProt:P07900; read-out AC50; what value for Cc1cccc(NC(=S)N/N=C/c2ccc([N+](=O)[O-])s2)c1 ?
15.6 µM (active)

----------
STUDY SYSTEM: UniProt:G5EF15
Sequence (G5EF15 whole entry, the tested form may be a part): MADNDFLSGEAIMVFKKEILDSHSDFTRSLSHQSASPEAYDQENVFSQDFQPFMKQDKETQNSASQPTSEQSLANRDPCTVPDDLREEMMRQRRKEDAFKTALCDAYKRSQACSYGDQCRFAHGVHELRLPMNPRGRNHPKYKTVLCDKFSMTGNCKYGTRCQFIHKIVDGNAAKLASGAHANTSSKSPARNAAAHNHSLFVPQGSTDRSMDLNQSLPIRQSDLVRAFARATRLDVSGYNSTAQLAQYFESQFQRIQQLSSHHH
EXPERIMENT: inhibitors of POS-1/mex-3 RNA binding, dose response, biochemical, fluorescence polarization (AID 1964);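 also: purified POS-1 fused to maltose binding protein made in E. coli; potency of compounds blocking POS-1 binding to fluorescent RNA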
The source made the active and inactive calls.
RESULT TYPE: EC50

Could I get EC50 for every one of these entries?
1. Cc1sc(/C=C2\C(=O)ON=C2c2ccccc2)cc1Br
2. N#CC1=C(N)OC2=C(C(=O)CCC2)C12C(=O)N1CCCc3cccc2c31 (configuration not stated)

1: 24.1 µM (inconclusive); 2: > 300 µM (not active)

Would you mind listing EC50 for each of the following compounds?
1. CN1CCCc2cc3c(C(F)(F)F)cc(=O)oc3nc21
2. COc1cccc(/C=C2\SC(=S)N(CCCC(=O)NC3=NCCS3)C2=O)c1

1. 24.9 µM (active)
2. > 300 µM (not active)

----------
STUDY SYSTEM: Ubiquitin-conjugating enzyme E2 N (Homo sapiens, UniProt P61088)
Sequence (P61088 whole entry): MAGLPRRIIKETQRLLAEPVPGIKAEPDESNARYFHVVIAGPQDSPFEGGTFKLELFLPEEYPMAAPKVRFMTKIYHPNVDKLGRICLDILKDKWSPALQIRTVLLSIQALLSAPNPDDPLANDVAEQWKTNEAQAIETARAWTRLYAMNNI
Assay type: functional
The source made the active and inactive calls.
Mark one answer only. Choices: active, inactive

{"MOLECULE": "CN(Cc1ccc(Cl)c(Cl)c1)C(=O)c1cccc(S(=O)(=O)N2CCN(Cc3ccccc3)CC2)c1", "ASSIGNED CLASS": "active"}
{"MOLECULE": "CN(C)CCC(=O)C(Cc1ccccc1)c1ccccc1 (centres undefined)", "ASSIGNED CLASS": "inactive"}

Please share the test call associated with O=C(NCCCN1CCCC1)c1ccc(Cn2c(=S)[nH]c3ccc(Br)cc3c2=O)cc1 .
inactive

How was Cc1cc(C)c2[nH]c(O)c(N=NC(S)=NCC3CCCO3)c2c1 (centres undefined) classified in this test?
active

----------
Cytochrome P450 3A4 (Homo sapiens): reported AC50 for various molecules.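 Also: CYP3A4 tested as one member of a cytochrome P450 panel screen.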
Sequence (P08684 whole entry): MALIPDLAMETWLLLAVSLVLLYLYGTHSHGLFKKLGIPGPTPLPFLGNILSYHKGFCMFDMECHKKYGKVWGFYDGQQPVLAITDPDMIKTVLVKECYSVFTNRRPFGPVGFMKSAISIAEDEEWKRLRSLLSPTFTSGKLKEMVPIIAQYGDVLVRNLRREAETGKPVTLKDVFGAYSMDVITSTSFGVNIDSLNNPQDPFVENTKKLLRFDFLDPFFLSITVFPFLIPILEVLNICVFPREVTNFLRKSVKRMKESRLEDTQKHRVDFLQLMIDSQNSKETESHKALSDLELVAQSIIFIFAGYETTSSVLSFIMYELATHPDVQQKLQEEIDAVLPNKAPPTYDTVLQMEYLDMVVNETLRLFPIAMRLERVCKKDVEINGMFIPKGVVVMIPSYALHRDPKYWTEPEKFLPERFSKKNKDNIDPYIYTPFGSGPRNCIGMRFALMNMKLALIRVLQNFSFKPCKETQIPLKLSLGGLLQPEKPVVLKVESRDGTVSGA

Worked examples follow.
{"MOLECULE": "O=C(NC(C(=O)c1ccccc1)n1cnccc1=O)c1ccccc1 (stereo unspecified)", "RESULT": "14.1 µM (inconclusive)"}
{"MOLECULE": "O=c1c(-c2ccc(Cl)cc2)nc2cnc(N3CCNCC3)nc2n1Cc1ccc(F)cc1", "RESULT": "12.6 µM (inconclusive)"}
{"MOLECULE": "Clc1ccccc1-c1nc(-c2ccncc2)no1 [PIFEXOLE]", "RESULT": "2 µM (inconclusive)"}
{"MOLECULE": "COc1ccc(NC(=O)CN(C)S(=O)(=O)c2ccc(Cl)cc2)c([N+](=O)[O-])c1", "RESULT": "1.78 µM (inconclusive)"}
{"MOLECULE": "COc1ccc(NC(=O)C23CC4CC(C2)CC(n2cnc(Br)n2)(C4)C3)c(C)c1", "RESULT": "14.1 µM (inconclusive)"}

Each molecule below has a reported value. Please supply its AC50.
1. Cc1cccc(NC(=O)Cn2c(=O)oc3ccccc32)c1
2. Cn1c(-c2ccccc2)cnc1N
3. Cc1ccc(-c2noc(-c3cc4ccccc4oc3=O)n2)cc1
4. CC1(C)OC(=O)C(/C=N/c2cccc(O)c2)=C(O)O1
5. CSc1nc(N)nc(-c2cccs2)c1C#N
6. CCCCC/C=C\C[C@H](O)/C=C\c1cccc(C[C@H](O)CCCCO)n1

25.1 µM (inconclusive)
28.2 µM (inconclusive)
3.55 µM (inconclusive)
31.6 µM (inconclusive)
25.1 µM (inconclusive)
6.31 µM (inconclusive)

----------
EXPERIMENT: Luminescence Cell-Based Dose Confirmation HTS to Identify Inhibitors of Platelet Dense Granule Release. [Related pubchem assays: 1663 (Primary HTS), 1678 (Summary of Project)]
Format: functional
The source made the active and inactive calls.
I'd be grateful if you could share measured EC50 for these entries.

Example compounds with recorded EC50:
{"COMPOUND": "O=C(NC1CCCCC1)C12CC3CC(CC(Cl)(C3)C1)C2", "RESULT": "> 112 µM (not active)"}
{"COMPOUND": "Cc1ccc(SCC(=O)OC(C)C(=O)NCc2ccccc2)cc1 (stereo not given)", "RESULT": "> 112 µM (not active)"}
{"COMPOUND": "CCN(C(=O)CSc1nnc(C)n1-c1ccccc1)C1CCS(=O)(=O)C1 (stereo not given)", "RESULT": "> 112 µM (not active)"}
{"COMPOUND": "CCOC(=O)CNS(=O)(=O)c1cc(-c2nnc(O)c3ccccc23)ccc1C", "RESULT": "7.49 µM (active)"}

Now for another entry.
I am curious: what EC50 value has been reported for Cc1nonc1C(=O)N/N=C/c1ccc(O)cc1O ?
0.136 µM (active)

----------
Kindly supply the reported AC50 values for the records listed here.
STUDY SYSTEM: ORF 73 (Human herpesvirus 8, UniProt O40947)
Sequence (O40947 whole entry): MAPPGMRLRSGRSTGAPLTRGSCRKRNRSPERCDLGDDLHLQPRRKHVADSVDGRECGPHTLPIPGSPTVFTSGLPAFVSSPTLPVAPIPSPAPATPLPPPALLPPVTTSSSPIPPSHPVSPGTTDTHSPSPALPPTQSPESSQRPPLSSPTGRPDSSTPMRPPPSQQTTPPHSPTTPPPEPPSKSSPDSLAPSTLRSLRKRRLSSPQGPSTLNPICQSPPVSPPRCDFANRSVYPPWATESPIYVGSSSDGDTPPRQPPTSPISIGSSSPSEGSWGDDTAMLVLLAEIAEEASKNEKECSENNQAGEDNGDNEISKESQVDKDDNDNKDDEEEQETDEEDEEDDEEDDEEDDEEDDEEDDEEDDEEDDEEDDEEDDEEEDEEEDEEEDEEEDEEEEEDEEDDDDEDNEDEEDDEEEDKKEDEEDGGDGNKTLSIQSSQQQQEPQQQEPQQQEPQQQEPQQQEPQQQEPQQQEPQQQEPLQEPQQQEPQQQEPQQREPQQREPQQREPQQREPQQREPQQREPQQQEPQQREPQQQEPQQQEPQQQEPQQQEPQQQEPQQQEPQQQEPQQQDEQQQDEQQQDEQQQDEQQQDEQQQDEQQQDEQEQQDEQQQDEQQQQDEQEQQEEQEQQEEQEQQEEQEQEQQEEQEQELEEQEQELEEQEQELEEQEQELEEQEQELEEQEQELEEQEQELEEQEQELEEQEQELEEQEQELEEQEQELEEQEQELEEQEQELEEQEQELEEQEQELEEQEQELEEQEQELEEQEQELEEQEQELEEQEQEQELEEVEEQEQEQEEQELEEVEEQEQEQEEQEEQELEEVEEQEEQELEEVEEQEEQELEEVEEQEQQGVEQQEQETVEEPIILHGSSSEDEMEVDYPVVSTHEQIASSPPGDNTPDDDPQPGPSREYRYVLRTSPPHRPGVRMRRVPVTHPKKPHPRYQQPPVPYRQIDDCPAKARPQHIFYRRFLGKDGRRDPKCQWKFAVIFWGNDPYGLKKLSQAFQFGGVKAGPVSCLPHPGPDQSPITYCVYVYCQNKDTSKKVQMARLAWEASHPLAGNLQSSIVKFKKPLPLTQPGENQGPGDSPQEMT
EXPERIMENT: inhibitors of C-LANA binding to LBS DNA, dose response, biochemical, fluorescence polarization, cherry-picked samples (AID 504725);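 also: fluorescence polarization of a labeled DNA duplex reporting LANA DNA binding; potency is for inhibitors that block LANA binding to the DNA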
Set-up: species or system Human gammaherpesvirus 8
Calls of active or inactive are those of the source.

{"MOLECULE": "Cc1cc2nc3c(=O)n(C4CCCCC4)c(=O)[nH]c3nc2cc1N", "AC50": "27.6 µM (active)"}
{"MOLECULE": "CCOC(=O)C1CCCN(C(=O)C2c3ccccc3Oc3ccccc32)C1 (centres undefined)", "AC50": "127 µM (active)"}

The following molecules each have a reported value; give each one's AC50.
1. CC1=NCCc2c1[nH]c1cc(O)ccc21
2. Nc1ccc2c3[nH]c4cc(N)ccc4cc-3nc2c1

1.76 µM (active)
0.758 µM (active)
